# target_under_test: Mitogen-activated protein kinase 1 (Homo sapiens) (UniProt P28482);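 further: reported figure is an averaged percent inhibition of the kinase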
# Sequence (P28482 whole entry): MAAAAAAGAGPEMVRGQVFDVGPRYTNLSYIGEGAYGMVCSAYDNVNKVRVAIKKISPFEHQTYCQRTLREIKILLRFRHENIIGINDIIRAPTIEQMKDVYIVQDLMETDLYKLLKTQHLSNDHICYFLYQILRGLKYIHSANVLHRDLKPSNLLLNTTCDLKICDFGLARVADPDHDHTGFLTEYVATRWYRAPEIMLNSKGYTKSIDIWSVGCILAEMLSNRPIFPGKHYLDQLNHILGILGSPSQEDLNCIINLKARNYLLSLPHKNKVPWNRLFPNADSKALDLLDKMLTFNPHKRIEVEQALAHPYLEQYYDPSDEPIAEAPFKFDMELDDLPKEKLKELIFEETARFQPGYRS
# condition_notes: at 0.1 µM
# key: entry, value: inhibition
reported_property: inhibition (%)

# compound, result_value
rows = [
    ("CC1=C(C(=O)Nc2ccc3[nH]ncc3c2)C(c2ccc3ccccc3c2)CC(=O)N1 (centres undefined)", 5.52),
    ("COC(=O)Nc1nc2cc(Oc3cccc(NC(=O)Nc4cc(C(F)(F)F)ccc4F)c3)ccc2[nH]1", -0.65),
    ("COc1ccc(COc2ccc(Cc3cnc(N)nc3N)cc2OC)cc1", -1.03),
    ("COc1ccc(-c2coc3ncnc(N)c23)cc1", 4.53),
]

====

# target_under_test: NT-3 growth factor receptor (Homo sapiens) (UniProt Q16288);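 further: mean percent inhibition of TRKC, reported within the GSK PKIS dataset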
# Sequence (Q16288 32-839 limits assumed): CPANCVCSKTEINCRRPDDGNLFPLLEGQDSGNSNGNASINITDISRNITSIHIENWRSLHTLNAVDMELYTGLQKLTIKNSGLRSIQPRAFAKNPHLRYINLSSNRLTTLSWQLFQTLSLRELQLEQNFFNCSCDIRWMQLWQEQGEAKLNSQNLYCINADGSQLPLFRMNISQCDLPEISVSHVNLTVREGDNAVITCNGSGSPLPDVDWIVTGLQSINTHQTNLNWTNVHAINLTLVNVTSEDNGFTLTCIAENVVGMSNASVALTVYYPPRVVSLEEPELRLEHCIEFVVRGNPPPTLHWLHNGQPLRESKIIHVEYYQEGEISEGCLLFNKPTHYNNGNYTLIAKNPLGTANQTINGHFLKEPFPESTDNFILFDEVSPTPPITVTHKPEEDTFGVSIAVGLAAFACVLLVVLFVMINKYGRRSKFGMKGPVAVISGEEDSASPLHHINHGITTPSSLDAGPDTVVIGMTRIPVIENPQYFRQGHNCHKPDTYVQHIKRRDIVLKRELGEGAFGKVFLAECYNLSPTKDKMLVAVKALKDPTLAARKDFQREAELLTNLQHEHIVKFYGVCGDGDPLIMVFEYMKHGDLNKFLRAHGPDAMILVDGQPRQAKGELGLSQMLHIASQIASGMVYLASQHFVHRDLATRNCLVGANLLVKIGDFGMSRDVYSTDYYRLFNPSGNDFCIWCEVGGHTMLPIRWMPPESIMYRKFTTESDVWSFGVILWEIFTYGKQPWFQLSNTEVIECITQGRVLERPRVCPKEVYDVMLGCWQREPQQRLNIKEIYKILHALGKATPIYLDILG
# condition_notes: at 0.1 µM

# smiles_repr, inhibition
data = [
    ("c1cnn2ncc(-c3ccnc(Nc4ccc5c(c4)OCCO5)n3)c2c1", "5.54%"),
    ("NS(=O)(=O)c1ccc(N/N=C2\\C(=O)Nc3ccc(C(=O)NCCc4c[nH]cn4)cc32)cc1", "9.97%"),
    ("COc1ccc(-c2coc3ncnc(N)c23)cc1", "2.53%"),
    ("CCn1c(-c2nonc2N)nc2cnc(Oc3cccc(NC(=O)c4ccc(OCCN5CCOCC5)cc4)c3)cc21", "2.85%"),
    ("Cc1cc(O)cc(C)c1/C=C/c1cncc(-c2nn[nH]n2)c1", "3.61%"),
    ("O=C(Nc1n[nH]c2nc(-c3ccco3)c(Br)cc12)C1CC1", "1.75%"),
    ("CCn1c(-c2nonc2N)nc2c(C#CC(C)(C)O)nc(OC[C@@H](N)c3ccccc3)cc21", "-1.23%"),
]

====

# target_under_test: Fibroblast growth factor receptor 1 (Homo sapiens) (UniProt P11362);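 further: values are reported as mean percent inhibition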
# Sequence (P11362 22-822 limits assumed): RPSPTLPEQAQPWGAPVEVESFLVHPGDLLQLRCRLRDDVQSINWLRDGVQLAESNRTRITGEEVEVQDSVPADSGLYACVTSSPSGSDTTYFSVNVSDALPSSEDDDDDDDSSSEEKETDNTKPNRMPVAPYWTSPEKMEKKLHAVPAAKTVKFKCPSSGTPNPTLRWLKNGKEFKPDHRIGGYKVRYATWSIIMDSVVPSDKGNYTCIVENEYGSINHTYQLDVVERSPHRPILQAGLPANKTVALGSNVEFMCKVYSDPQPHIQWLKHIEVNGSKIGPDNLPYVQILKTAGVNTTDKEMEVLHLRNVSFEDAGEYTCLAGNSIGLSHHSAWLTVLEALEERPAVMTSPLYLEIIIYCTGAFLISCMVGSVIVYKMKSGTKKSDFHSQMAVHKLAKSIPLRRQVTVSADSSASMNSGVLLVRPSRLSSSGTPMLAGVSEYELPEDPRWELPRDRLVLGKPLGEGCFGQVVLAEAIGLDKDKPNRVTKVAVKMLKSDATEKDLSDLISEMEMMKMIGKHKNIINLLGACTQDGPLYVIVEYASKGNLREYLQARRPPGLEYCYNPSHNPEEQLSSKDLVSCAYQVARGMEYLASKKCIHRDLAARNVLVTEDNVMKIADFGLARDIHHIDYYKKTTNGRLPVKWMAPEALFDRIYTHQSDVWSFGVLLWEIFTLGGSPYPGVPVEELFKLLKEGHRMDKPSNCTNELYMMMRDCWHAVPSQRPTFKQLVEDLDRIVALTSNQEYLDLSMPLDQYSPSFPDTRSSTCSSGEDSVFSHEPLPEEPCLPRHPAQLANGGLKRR
# condition_notes: at 0.1 µM

# molecule, target_under_test, inhibition (%)
rows = [
    ("Cc1ccc(NC(=O)c2ccnc(N3CCCC3)c2)cc1-c1ccc(C(=O)NCC2CC2)cc1", "Fibroblast growth factor receptor 1 (Homo sapiens) (UniProt P11362)", -1.44),
    ("O=C1NC(=O)C(N2CCc3ccccc32)=C1c1ccc(Cl)cc1", "Fibroblast growth factor receptor 1 (Homo sapiens) (UniProt P11362)", 5.27),
    ("CC(C)=Cc1cccc2c1/C(=N/Nc1ccc(S(N)(=O)=O)cc1)C(=O)N2", "Fibroblast growth factor receptor 1 (Homo sapiens) (UniProt P11362)", -0.4),
    ("COc1cc2ncn(-c3cc(O[C@H](C)c4ccccc4Cl)c(C(N)=O)s3)c2cc1OC", "Fibroblast growth factor receptor 1 (Homo sapiens) (UniProt P11362)", 4.42),
    ("CC1=C(C(=O)Nc2ccc3[nH]ncc3c2)C(c2ccc(F)cc2)NC(=O)N1 (stereo unspecified)", "Fibroblast growth factor receptor 1 (Homo sapiens) (UniProt P11362)", -0.9),
    ("COc1cc2ncn(-c3cc(OCc4ccccc4Cl)c(C(N)=O)s3)c2cc1OC", "Fibroblast growth factor receptor 1 (Homo sapiens) (UniProt P11362)", 3.46),
    ("CC1=C(C(=O)Nc2ccc3[nH]ncc3c2)C(c2ccc3ccccc3c2)CC(=O)N1 (stereo unspecified)", "Fibroblast growth factor receptor 1 (Homo sapiens) (UniProt P11362)", 1.46),
    ("CS(=O)(=O)CCN(CC#N)Cc1ccc(-c2ccc3ncnc(Nc4ccc(OCc5cccc(F)c5)c(Cl)c4)c3c2)o1", "Fibroblast growth factor receptor 1 (Homo sapiens) (UniProt P11362)", -3.34),
    ("O=C1NC(=O)C(c2ccccc2Cl)=C1Nc1cccc(O)c1", "Fibroblast growth factor receptor 1 (Homo sapiens) (UniProt P11362)", 4.34),
    ("COc1cc(C=NNc2ncnc3c2cnn3-c2ccccc2)ccc1O", "Fibroblast growth factor receptor 1 (Homo sapiens) (UniProt P11362)", 1.01),
    ("CN(C)c1cc2c(Nc3ccc4nc(Cc5ccccc5)[nH]c4c3)ncnc2cn1", "Fibroblast growth factor receptor 1 (Homo sapiens) (UniProt P11362)", 8.38),
    ("NS(=O)(=O)c1cccc(-c2ccc3c(NC(=O)C4CC4)n[nH]c3c2)c1", "Fibroblast growth factor receptor 1 (Homo sapiens) (UniProt P11362)", 0.33),
    ("CC1=C(C(=O)Nc2ccc3[nH]ncc3c2)C(c2ccc(Cl)c(Cl)c2)CC(=O)N1 (stereo unspecified)", "Fibroblast growth factor receptor 1 (Homo sapiens) (UniProt P11362)", 0.69),
    ("NCc1ccc(-c2nc(-c3ccc(Cl)c(O)c3)c(-c3ccncc3)[nH]2)cc1", "Fibroblast growth factor receptor 1 (Homo sapiens) (UniProt P11362)", -0.32),
    ("COC(=O)Nc1nc2cc(Oc3cccc(NC(=O)Nc4cc(C(F)(F)F)ccc4F)c3)ccc2[nH]1", "Fibroblast growth factor receptor 1 (Homo sapiens) (UniProt P11362)", -2.84),
    ("CS(=O)(=O)CCNCc1ccc(-c2ccc3ncnc(Nc4ccc(OCc5cccc(F)c5)c(C(F)(F)F)c4)c3c2)o1", "Fibroblast growth factor receptor 1 (Homo sapiens) (UniProt P11362)", -1.13),
]

====

# target_under_test: Serine/threonine-protein kinase pim-1 (Homo sapiens) (UniProt P11309);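 further: reported value is the mean inhibition of PIM1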
# Sequence (P11309 whole entry, looked up): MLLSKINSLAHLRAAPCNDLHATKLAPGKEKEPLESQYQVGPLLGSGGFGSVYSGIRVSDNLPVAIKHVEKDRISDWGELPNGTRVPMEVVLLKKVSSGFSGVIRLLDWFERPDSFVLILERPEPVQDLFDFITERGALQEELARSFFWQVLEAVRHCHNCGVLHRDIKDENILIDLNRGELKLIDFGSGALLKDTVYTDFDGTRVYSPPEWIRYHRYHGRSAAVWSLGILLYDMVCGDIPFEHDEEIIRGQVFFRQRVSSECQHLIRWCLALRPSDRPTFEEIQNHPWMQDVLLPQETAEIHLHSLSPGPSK
# condition_notes: at 0.1 µM
inhibition by entry:
reported_property: inhibition

# compound, target_under_test, result_value
data = [
    ("O=C1NC(=O)C(c2ccccc2Cl)=C1Nc1cccc(O)c1", "Serine/threonine-protein kinase pim-1 (Homo sapiens) (UniProt P11309)", "1.24%"),
    ("CS(=O)(=O)CCNCc1ccc(-c2ccc3ncnc(Nc4ccc(OCc5cccc(F)c5)c(C(F)(F)F)c4)c3c2)o1", "Serine/threonine-protein kinase pim-1 (Homo sapiens) (UniProt P11309)", "1.03%"),
    ("NC(=O)c1cccc(Nc2nccc(Nc3cccc4[nH]ncc34)n2)c1", "Serine/threonine-protein kinase pim-1 (Homo sapiens) (UniProt P11309)", "0.6%"),
    ("COc1ccc2cc(-c3c(-c4ccncc4)nc(-c4ccc([S+](C)[O-])cc4)n3C)ccc2c1 (centres undefined)", "Serine/threonine-protein kinase pim-1 (Homo sapiens) (UniProt P11309)", "-0.22%"),
]

====

# inhibition values compiled below
# target_under_test: Calcium/calmodulin-dependent protein kinase type II subunit alpha (Homo sapiens) (UniProt Q9UQM7);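 further: reported values are averages (mean inhibition of CAMK2A)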
# Sequence (Q9UQM7 whole entry): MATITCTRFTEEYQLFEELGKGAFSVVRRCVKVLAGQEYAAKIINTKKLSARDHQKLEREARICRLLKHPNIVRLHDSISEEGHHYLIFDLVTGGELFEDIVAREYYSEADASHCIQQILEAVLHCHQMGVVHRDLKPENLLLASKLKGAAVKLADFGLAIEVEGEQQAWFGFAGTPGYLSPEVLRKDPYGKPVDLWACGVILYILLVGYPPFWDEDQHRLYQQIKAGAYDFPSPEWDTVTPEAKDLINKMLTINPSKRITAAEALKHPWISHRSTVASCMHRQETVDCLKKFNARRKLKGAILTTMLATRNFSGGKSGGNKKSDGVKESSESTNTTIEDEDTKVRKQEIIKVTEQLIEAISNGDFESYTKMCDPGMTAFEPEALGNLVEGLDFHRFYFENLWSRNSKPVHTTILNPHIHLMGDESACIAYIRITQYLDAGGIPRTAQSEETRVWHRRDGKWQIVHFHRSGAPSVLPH
# condition_notes: at 0.1 µM

# smiles_repr, inhibition
data = [
    ("CCCN1CCC(Oc2cc(Nc3nc(Nc4cccc(F)c4C(N)=O)c4cc[nH]c4n3)c(OC)cc2Cl)CC1", "0.13%"),
    ("COc1ccc(-c2coc3ncnc(N)c23)cc1", "3.92%"),
    ("CC(=O)Nc1cccc(C#Cc2cncnc2Nc2ccc(OCc3cccc(F)c3)c(Cl)c2)n1", "0.69%"),
    ("COc1cc2ncn(-c3cc(O[C@H](C)c4ccccc4Cl)c(C(N)=O)s3)c2cc1OC", "3.24%"),
    ("Nc1nc(-c2ccccn2)c(-c2ccc3ncccc3n2)s1", "1.9%"),
    ("CN(C)c1cc2c(Nc3ccc4nc(Cc5ccccc5)[nH]c4c3)ncnc2cn1", "4.11%"),
    ("CCn1c(-c2nonc2N)nc2ccncc21", "3.93%"),
]

====

# maps each entry to its inhibition
# target_under_test: ALK tyrosine kinase receptor (Homo sapiens);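 further: values are mean percent inhibition of ALK, screened as part of the GSK PKIS panel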
# condition_notes: at 1 µM
reported_property: inhibition (%)

# smiles_repr, units_label, result_value
rows = [
    ("O=C1NC(=O)C(c2cccc(Cl)c2)=C1Nc1ccc(O)c(Cl)c1", "%", 4.45),
    ("Cc1cc(O)cc(C)c1/C=C/c1cncc(-c2nn[nH]n2)c1", "%", 4.03),
    ("NS(=O)(=O)c1ccc(N/N=C2\\C(=O)Nc3ccc(C(=O)NCCc4c[nH]cn4)cc32)cc1", "%", 12.9),
    ("CS(=O)(=O)CCN(CC#N)Cc1ccc(-c2ccc3ncnc(Nc4ccc(OCc5cccc(F)c5)c(Cl)c4)c3c2)o1", "%", -0.48),
    ("Cc1cccc(-c2n[nH]cc2-c2ccc3ncccc3n2)n1", "%", 0.57),
]

====

Below: a set of entries, each annotated with reported inhibition.
# target_under_test: Serine/threonine-protein kinase Nek1 (Homo sapiens)
# Sequence (whole entry): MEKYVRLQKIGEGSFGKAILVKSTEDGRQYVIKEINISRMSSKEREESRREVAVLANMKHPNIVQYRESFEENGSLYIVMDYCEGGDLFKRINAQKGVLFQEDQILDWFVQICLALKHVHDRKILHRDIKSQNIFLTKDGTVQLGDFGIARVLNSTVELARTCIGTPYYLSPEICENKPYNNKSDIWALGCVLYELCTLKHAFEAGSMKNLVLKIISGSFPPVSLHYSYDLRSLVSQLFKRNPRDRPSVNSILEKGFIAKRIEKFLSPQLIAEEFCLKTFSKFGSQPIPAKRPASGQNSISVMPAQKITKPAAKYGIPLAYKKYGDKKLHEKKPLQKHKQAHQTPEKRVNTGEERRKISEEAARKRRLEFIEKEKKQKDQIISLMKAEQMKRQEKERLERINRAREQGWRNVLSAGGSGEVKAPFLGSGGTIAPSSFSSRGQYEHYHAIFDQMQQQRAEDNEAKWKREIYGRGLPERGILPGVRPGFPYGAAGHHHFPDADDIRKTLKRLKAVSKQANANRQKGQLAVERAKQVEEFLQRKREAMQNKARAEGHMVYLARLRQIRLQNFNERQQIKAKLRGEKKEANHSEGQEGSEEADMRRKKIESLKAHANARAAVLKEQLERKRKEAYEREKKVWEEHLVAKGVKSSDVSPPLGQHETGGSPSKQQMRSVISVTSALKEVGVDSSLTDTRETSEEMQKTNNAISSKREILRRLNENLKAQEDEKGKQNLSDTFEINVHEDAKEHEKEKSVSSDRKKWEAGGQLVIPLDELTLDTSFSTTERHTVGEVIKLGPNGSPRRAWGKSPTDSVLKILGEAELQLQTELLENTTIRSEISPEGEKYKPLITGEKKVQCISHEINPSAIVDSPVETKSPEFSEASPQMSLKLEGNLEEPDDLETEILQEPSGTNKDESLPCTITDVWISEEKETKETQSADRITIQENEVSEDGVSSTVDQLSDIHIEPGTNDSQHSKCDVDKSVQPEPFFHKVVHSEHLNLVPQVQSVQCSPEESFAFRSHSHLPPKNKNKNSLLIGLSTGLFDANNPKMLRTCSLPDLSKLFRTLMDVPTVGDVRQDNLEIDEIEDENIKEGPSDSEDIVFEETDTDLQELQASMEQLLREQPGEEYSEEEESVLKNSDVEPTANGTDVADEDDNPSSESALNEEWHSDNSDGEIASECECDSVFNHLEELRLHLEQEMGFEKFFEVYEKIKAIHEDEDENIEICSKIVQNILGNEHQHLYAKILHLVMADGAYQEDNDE
# condition_notes: at 1 µM
# Description: GSK_PKIS: NEK1 mean inhibition at 1 uM [Nanosyn]
reported_property: inhibition (%)

# compound, units_label, result_value
measured = [
    ("COc1ccc(-c2nn3ncccc3c2-c2ccnc(Nc3ccc(Cl)c(C(F)(F)F)c3)n2)cc1", "%", 2.51),
    ("COc1cc2ncn(-c3cc(O[C@@H](C)c4ccccc4Cl)c(C(N)=O)s3)c2cc1OC", "%", 19.3),
    ("O=C1NC(=O)C(c2ccccc2Cl)=C1Nc1cccc(O)c1", "%", 2.01),
    ("CCn1c(-c2nonc2N)nc2c(N3CCCC3)nccc21", "%", 0.27),
    ("[O-][S+]1CCN(Cc2ccc(-c3ccc4ncnc(Nc5ccc(OCc6ccccc6)c(F)c5)c4c3)o2)CC1", "%", 2.41),
    ("COc1cc(C)c(NC(=O)CN(C)C)cc1Nc1nc(Nc2cccc(F)c2C(N)=O)c2cc[nH]c2n1", "%", -0.24),
    ("Cn1cc(C=C2C(=O)Nc3cccnc32)c2ccccc21", "%", 1.05),
    ("N#Cc1c(NC(=O)c2cccc3ccccc23)sc2c1CCCC2", "%", 1.42),
    ("CS(=O)(=O)CCN(CC#N)Cc1ccc(-c2ccc3ncnc(Nc4ccc(OCc5cccc(F)c5)c(Cl)c4)c3c2)o1", "%", 1.78),
    ("CC1=C(C(=O)Nc2ccc3[nH]ncc3c2)C(c2ccc(Cl)c(Cl)c2)CC(=O)N1 (stereo not drawn)", "%", -0.51),
    ("COC(=O)Nc1nc2cc(Oc3ccc(NC(=O)Nc4cccc(C(=O)O)c4)cc3)ccc2[nH]1", "%", 2.1),
    ("COc1ccc2cc(-c3c(-c4ccncc4)nc(-c4ccc([S+](C)[O-])cc4)n3C)ccc2c1 (stereo not drawn)", "%", 1.54),
    ("Cc1ccc(C(=O)NC2CCCCC2)cc1-c1ccc(C(=O)NCC2CC2)cc1", "%", 1.48),
    ("CS(=O)(=O)CCNCc1ccc(-c2ccc3ncnc(Nc4ccc(OCc5ccccc5)c(Cl)c4)c3c2)o1", "%", 2.81),
    ("Fc1cccc(COc2ccc(Nc3ncnc4cc(-c5ccc[nH]5)sc34)cc2Cl)c1", "%", 4.17),
    ("CCn1c(-c2nonc2N)nc2ccncc21", "%", 0.07),
    ("c1cnn2ncc(-c3ccnc(Nc4ccc5c(c4)OCCO5)n3)c2c1", "%", 20.4),
    ("CCn1c(-c2nonc2N)nc2cncc(C(=O)N3CC[C@H](N)C3)c21", "%", 3.47),
    ("Cc1nnc(-c2ccc(C)c(-c3ccc(C(=O)Nc4cccc(C#N)c4)cc3)c2)o1", "%", 4.44),
    ("NS(=O)(=O)c1cccc(-c2ccc3c(NC(=O)C4CC4)n[nH]c3c2)c1", "%", -0.76),
    ("Fc1cccc(COc2ccc(Nc3ncnc4sc(-c5cccs5)cc34)cc2Cl)c1", "%", 2.57),
    ("CS(=O)(=O)CCNCc1ccc(-c2ccc3ncnc(Nc4ccc(OCc5cccc(F)c5)c(C(F)(F)F)c4)c3c2)o1", "%", 4.09),
    ("CCn1c(-c2nonc2N)nc2cnc(Oc3cccc(NC(=O)c4ccc(OCCN5CCOCC5)cc4)c3)cc21", "%", 3.94),
    ("O=C1NC(=O)C(N2CCc3ccccc32)=C1c1ccc(Cl)cc1", "%", 2.69),
    ("O=C1NC(=O)C(c2cccc(Cl)c2)=C1Nc1ccc(O)c(Cl)c1", "%", 0.17),
    ("CN1CCC(C(=O)Nc2n[nH]c3nnc(-c4ccccc4)cc23)CC1", "%", 4.86),
    ("CC1=C(C(=O)Nc2ccc3[nH]ncc3c2)C(c2ccc(F)cc2)NC(=O)N1 (stereo not drawn)", "%", 4.56),
    ("Cc1ccc(NC(=O)c2ccnc(N3CCCC3)c2)cc1-c1ccc(C(=O)NCC2CC2)cc1", "%", 2.36),
]

Data credit: ChEMBL document CHEMBL1961873
